target: Peroxisome proliferator-activated receptor alpha (Homo sapiens, UniProt Q07869); assay: Binding affinity to PPARalpha (unknown origin) using fluorescein-tagged dual PPARalpha/gamma activator by homogeneous fluorescence polarization binding assay
Sequence (Q07869 whole entry): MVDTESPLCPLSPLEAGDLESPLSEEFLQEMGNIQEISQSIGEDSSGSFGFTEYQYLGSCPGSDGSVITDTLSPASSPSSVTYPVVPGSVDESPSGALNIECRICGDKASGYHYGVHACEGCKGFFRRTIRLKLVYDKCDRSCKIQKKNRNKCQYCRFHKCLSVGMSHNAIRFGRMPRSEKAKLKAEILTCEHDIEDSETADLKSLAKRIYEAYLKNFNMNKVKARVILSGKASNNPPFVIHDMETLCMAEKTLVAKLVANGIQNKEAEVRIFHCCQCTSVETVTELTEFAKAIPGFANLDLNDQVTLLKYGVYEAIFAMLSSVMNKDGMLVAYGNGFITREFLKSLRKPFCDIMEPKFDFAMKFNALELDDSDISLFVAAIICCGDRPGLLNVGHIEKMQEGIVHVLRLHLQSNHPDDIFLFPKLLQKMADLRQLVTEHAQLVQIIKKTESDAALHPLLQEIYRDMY
parameter: IC50 (µM)

- molecule: "CCOC(=O)N1C[C@H](C(=O)O)[C@@H](c2ccc(OCCc3nc(-c4ccccc4)oc3C)cc2)C1 (racemic)"
  parameter: "IC50"
  unit-symbol: "µM"
  sign-qualifier: ">"
  numeric-result: 10
- molecule: "Cc1oc(-c2ccccc2)nc1CCOc1ccc(C[C@@H]2CN(c3nc(C(F)(F)F)co3)C[C@@H]2C(=O)O)cc1 (racemic)"
  parameter: "IC50"
  unit-symbol: "µM"
  sign-qualifier: "="
  numeric-result: 5.01
- molecule: "Cc1oc(-c2ccccc2)nc1CCOc1ccc(C[C@@H]2CN(C(=O)Oc3ccccc3)C[C@@H]2C(=O)O)cc1"
  parameter: "IC50"
  unit-symbol: "µM"
  sign-qualifier: "="
  numeric-result: 0.18
- molecule: "CCOC(=O)N1C[C@@H](Cc2ccc(OCCc3nc(-c4ccccc4)oc3C)cc2)[C@@H](C(=O)O)C1 (racemic)"
  parameter: "IC50"
  unit-symbol: "µM"
  sign-qualifier: "="
  numeric-result: 2.02
- molecule: "Cc1oc(-c2ccccc2)nc1CCOc1ccc(C[C@@H]2CN(c3ncccn3)C[C@@H]2C(=O)O)cc1 (racemic)"
  parameter: "IC50"
  unit-symbol: "µM"
  sign-qualifier: ">"
  numeric-result: 10
- molecule: "Cc1oc(-c2ccccc2)nc1CCOc1ccc(CC[C@H]2CN(C(=O)Oc3ccccc3)C[C@@H]2C(=O)O)cc1 (racemic)"
  parameter: "IC50"
  unit-symbol: "µM"
  sign-qualifier: "="
  numeric-result: 3.25
- molecule: "Cc1oc(-c2ccccc2)nc1CCOc1cccc(C[C@H]2CN(C(=O)Oc3ccccc3)C[C@@H]2C(=O)O)c1 (racemic)"
  parameter: "IC50"
  unit-symbol: "µM"
  sign-qualifier: "="
  numeric-result: 3.09
- molecule: "Cc1oc(-c2ccccc2)nc1CCOc1cccc(C[C@@H]2CN(C(=O)Oc3ccccc3)C[C@@H]2C(=O)O)c1 (racemic)"
  parameter: "IC50"
  unit-symbol: "µM"
  sign-qualifier: "="
  numeric-result: 0.22
- molecule: "Cc1oc(-c2ccccc2)nc1CCOc1cccc([C@H]2CN(C(=O)Oc3ccccc3)C[C@@H]2CC(=O)O)c1 (racemic)"
  parameter: "IC50"
  unit-symbol: "µM"
  sign-qualifier: ">"
  numeric-result: 10
- molecule: "Cc1oc(-c2ccccc2)nc1CCOc1ccc([C@@H]2CN(C(=O)Oc3ccccc3)C[C@@H]2C(=O)O)cc1 (racemic)"
  parameter: "IC50"
  unit-symbol: "µM"
  sign-qualifier: ">"
  numeric-result: 10
- molecule: "CCOC(=O)N1C[C@@H](CCc2cccc(OCCc3nc(-c4ccccc4)oc3C)c2)[C@@H](C(=O)O)C1 (racemic)"
  parameter: "IC50"
  unit-symbol: "µM"
  sign-qualifier: "="
  numeric-result: 2.69
- molecule: "CCOC(=O)N1C[C@H](C(=O)O)[C@H](c2ccc(OCCc3nc(-c4ccccc4)oc3C)cc2)C1 (racemic)"
  parameter: "IC50"
  unit-symbol: "µM"
  sign-qualifier: ">"
  numeric-result: 10
- molecule: "Cc1oc(-c2ccccc2)nc1CCOc1cccc([C@@H]2CN(C(=O)Oc3ccccc3)C[C@@H]2CC(=O)O)c1 (racemic)"
  parameter: "IC50"
  unit-symbol: "µM"
  sign-qualifier: "="
  numeric-result: 4.02
